This collection of values is drawn from BigSolDB 2.1.

Conditions: in MIBK, 338.15 K
quantity: solubility (mole fraction)

Q: Bench note: what solubility (mole fraction) did CCC(CO)(CO)C(=O)O show?
A: 0.0891

* * *

Conditions: in cyclopentyl methyl ether, 328.15 K
quantity: solubility (mole fraction)

Q: Bench note: what solubility (mole fraction) did CCC(CO)(CO)C(=O)O show?
A: 0.0374

* * *

Settings: in ethyl acetate, 303.15 K
quantity: solubility (mole fraction)
// no unit, no text: just the number

Q: Bench note: what solubility (mole fraction) did CCC(CO)(CO)C(=O)O show?
A: 0.0184
